- measured on: Folate receptor beta (Homo sapiens)
- assay method text: Inhibition of [3H]folic acid binding to FRbeta (unknown origin) expressed in Chinese hamster D4 cells
- Format: cell-based
Activity calls are given as the source filed them. The calls are words filed in the database; no cut-off is given here.
Please answer using one outcome listed in active, inactive

Sample answers from the record:
compound | measured on | assigned category
Nc1nc2[nH]c(CCCc3ccc(C(=O)N[C@@H](CCC(=O)O)C(=O)O)s3)cc2c(=O)[nH]1 | Folate receptor beta (Homo sapiens) | active
Nc1nc2[nH]c(CCCc3ccc(C(=O)NCCCC(=O)O)s3)cc2c(=O)[nH]1 | Folate receptor beta (Homo sapiens) | active

Hi, sorry to bother you, what did the test record for Nc1nc2[nH]c(CCCc3ccc(C(=O)N[C@@H](CCCC(=O)O)C(=O)O)s3)cc2c(=O)[nH]1 ?
active

Hi, sorry to bother you, what did the test record for CCC[C@H](NC(=O)c1ccc(CCCc2cc3c(=O)[nH]c(N)nc3[nH]2)s1)C(=O)O ?
active

Hi, sorry to bother you, what did the test record for Nc1nc(=O)c2nc(CNc3ccc(C(=O)N[C@@H](CCC(=O)O)C(=O)O)cc3)cnc2[nH]1 ?
active

Hi, sorry to bother you, what did the test record for Nc1nc2[nH]c(CCCc3ccc(C(=O)O)s3)cc2c(=O)[nH]1 ?
active

Hi, sorry to bother you, what did the test record for CN(Cc1cnc2nc(N)nc(N)c2n1)c1ccc(C(=O)N[C@@H](CCC(=O)O)C(=O)O)cc1 [METHOTREXATE] ?
inactive

Hi, sorry to bother you, what did the test record for Nc1nc2[nH]c(CCCc3ccc(C(=O)N[C@@H](CC(=O)O)C(=O)O)s3)cc2c(=O)[nH]1 ?
active

###

- measured on: UniProtKB P15328
- Sequence (P15328 25-234 limits assumed): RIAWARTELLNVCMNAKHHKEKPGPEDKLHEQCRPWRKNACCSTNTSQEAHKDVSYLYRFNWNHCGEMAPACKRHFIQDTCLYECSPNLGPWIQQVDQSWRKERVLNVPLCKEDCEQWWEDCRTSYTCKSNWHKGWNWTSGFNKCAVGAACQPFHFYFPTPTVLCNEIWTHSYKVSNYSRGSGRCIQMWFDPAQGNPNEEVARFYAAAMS
- assay method text: Inhibition of [3H]folic acid binding to FRalpha (unknown origin) expressed in Chinese hamster RT16 cells
- Type: cell-based
Activity calls are given as the source filed them. No cut-off for these calls is given here.
Please answer using one outcome listed in 1.0 (active), 0.0 (inactive)

Sample answers from the record:
molecule | assigned category
Nc1nc2[nH]c(CCCc3ccc(C(=O)N[C@@H](CCCC(=O)O)C(=O)O)s3)cc2c(=O)[nH]1 | 1.0
Nc1nc2[nH]c(CCCc3ccc(C(=O)O)s3)cc2c(=O)[nH]1 | 1.0
Nc1nc2[nH]c(CCCc3ccc(C(=O)NCCCC(=O)O)s3)cc2c(=O)[nH]1 | 1.0
Nc1nc(=O)c2nc(CNc3ccc(C(=O)N[C@@H](CCC(=O)O)C(=O)O)cc3)cnc2[nH]1 | 1.0
Nc1nc2[nH]c(CCCc3ccc(C(=O)N[C@@H](CC(=O)O)C(=O)O)s3)cc2c(=O)[nH]1 | 1.0

Hi, sorry to bother you, what did the test record for CCC[C@H](NC(=O)c1ccc(CCCc2cc3c(=O)[nH]c(N)nc3[nH]2)s1)C(=O)O ?
1.0

Hi, sorry to bother you, what did the test record for CN(Cc1cnc2nc(N)nc(N)c2n1)c1ccc(C(=O)N[C@@H](CCC(=O)O)C(=O)O)cc1 [METHOTREXATE] ?
0.0

Hi, sorry to bother you, what did the test record for Nc1nc2[nH]c(CCCc3ccc(C(=O)N[C@@H](CCC(=O)O)C(=O)O)s3)cc2c(=O)[nH]1 ?
1.0

###

- measured on: Proton-coupled folate transporter (Homo sapiens)
- Sequence (Q96NT5 whole entry): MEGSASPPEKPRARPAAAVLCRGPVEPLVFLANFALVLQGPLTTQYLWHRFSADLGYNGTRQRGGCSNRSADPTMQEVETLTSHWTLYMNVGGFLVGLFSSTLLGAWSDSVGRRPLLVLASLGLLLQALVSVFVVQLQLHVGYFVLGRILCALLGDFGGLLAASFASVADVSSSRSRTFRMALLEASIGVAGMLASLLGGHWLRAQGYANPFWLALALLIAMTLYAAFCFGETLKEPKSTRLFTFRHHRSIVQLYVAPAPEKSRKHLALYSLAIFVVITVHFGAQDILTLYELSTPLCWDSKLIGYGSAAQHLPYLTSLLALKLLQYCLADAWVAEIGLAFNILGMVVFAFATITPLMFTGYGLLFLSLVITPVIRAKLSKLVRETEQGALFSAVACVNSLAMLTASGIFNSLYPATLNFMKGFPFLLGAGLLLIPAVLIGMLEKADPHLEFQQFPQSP
quantity: pKi
Give bare numbers, as −log10 of the molar value.

Please report pKi for the following compound: Nc1nc2[nH]c(CCCc3ccc(C(=O)N[C@@H](CCCC(=O)O)C(=O)O)s3)cc2c(=O)[nH]1
5.80
